- TEST_METHOD_NOTES: Solubility of amorphous solids of Compound 1 in single solvents at room temperature
- Format: physicochemical
- SETUP_CONDITIONS: organic solvent or mixture, thermodynamic from solid, toluene
MEASURED_ATTRIBUTE: solubility

*Q* Recorded solubility for Cc1cc([C@@H](C)Nc2ccc(Cl)nc2C(=O)O)c2nc(N3CCOCC3)c(C#N)nc2c1 , please?
*A* > 204 mg/mL

----------
- TEST_METHOD_NOTES: Solubility of amorphous solids of Compound 1 in single solvents at room temperature
- Assay type: physicochemical
- SETUP_CONDITIONS: organic solvent or mixture, thermodynamic from solid, EtOH
MEASURED_ATTRIBUTE: solubility

*Q* Quick check: solubility of Cc1cc([C@@H](C)Nc2ccc(Cl)nc2C(=O)O)c2nc(N3CCOCC3)c(C#N)nc2c1 ?
*A* 43 to 53.7 mg/mL

----------
- TEST_METHOD_NOTES: Solubility of amorphous solids of Compound 1 in single solvents at room temperature
- Type: physicochemical
- SETUP_CONDITIONS: organic solvent or mixture, thermodynamic from solid, MeOH
MEASURED_ATTRIBUTE: solubility

*Q* Query: solubility; subject: Cc1cc([C@@H](C)Nc2ccc(Cl)nc2C(=O)O)c2nc(N3CCOCC3)c(C#N)nc2c1
*A* > 210 mg/mL

----------
- TEST_METHOD_NOTES: Solubility of amorphous solids of Compound 1 in single solvents at room temperature
- Assay type: physicochemical
- SETUP_CONDITIONS: organic solvent or mixture, thermodynamic from solid, DMSO
MEASURED_ATTRIBUTE: solubility

*Q* Recorded solubility of Cc1cc([C@@H](C)Nc2ccc(Cl)nc2C(=O)O)c2nc(N3CCOCC3)c(C#N)nc2c1 , please.
*A* > 241 mg/mL

----------
- TEST_METHOD_NOTES: Solubility of amorphous solids of Compound 1 in single solvents at room temperature
- Type: physicochemical
- SETUP_CONDITIONS: organic solvent or mixture, thermodynamic from solid, IPA
MEASURED_ATTRIBUTE: solubility

*Q* Which solubility reading was recorded for the compound Cc1cc([C@@H](C)Nc2ccc(Cl)nc2C(=O)O)c2nc(N3CCOCC3)c(C#N)nc2c1 [Compound 1] ?
*A* 14.4 to 16.8 mg/mL

----------
- TEST_METHOD_NOTES: Solubility of amorphous solids of Compound 1 in single solvents at room temperature
- Format: physicochemical
- SETUP_CONDITIONS: organic solvent or mixture, thermodynamic from solid, DMF
MEASURED_ATTRIBUTE: solubility

*Q* What value of solubility has been recorded for this entry: Cc1cc([C@@H](C)Nc2ccc(Cl)nc2C(=O)O)c2nc(N3CCOCC3)c(C#N)nc2c1 [Compound 1]
*A* > 216 mg/mL

----------
- TEST_METHOD_NOTES: Solubility of amorphous solids of Compound 1 in single solvents at room temperature
- Assay type: physicochemical
- SETUP_CONDITIONS: organic solvent or mixture, thermodynamic from solid, MEK
MEASURED_ATTRIBUTE: solubility

*Q* Look at this molecule and give its reported solubility. Cc1cc([C@@H](C)Nc2ccc(Cl)nc2C(=O)O)c2nc(N3CCOCC3)c(C#N)nc2c1
*A* > 191 mg/mL

----------
- TEST_METHOD_NOTES: Solubility of amorphous solids of Compound 1 in single solvents at room temperature
- Assay type: physicochemical
- SETUP_CONDITIONS: organic solvent or mixture, thermodynamic from solid, 2-MeTHF
MEASURED_ATTRIBUTE: solubility

*Q* What does the record list as solubility for Cc1cc([C@@H](C)Nc2ccc(Cl)nc2C(=O)O)c2nc(N3CCOCC3)c(C#N)nc2c1 [Compound 1] ?
*A* > 230 mg/mL

----------
- TEST_METHOD_NOTES: Solubility of amorphous solids of Compound 1 in single solvents at room temperature
- Type: physicochemical
- SETUP_CONDITIONS: organic solvent or mixture, thermodynamic from solid, ACN
MEASURED_ATTRIBUTE: solubility

*Q* Give the measured solubility of Cc1cc([C@@H](C)Nc2ccc(Cl)nc2C(=O)O)c2nc(N3CCOCC3)c(C#N)nc2c1 .
*A* > 202 mg/mL
